Hello, the source for this data is paper PMC8067440, in case you need it.

target: AGT (DMa, major allele) (Homo sapiens, UniProt P21549, I340M/P11L); construct: full length, expressed in E. coli BL21(DE3), purified on HisPrep FF (His-tagged, removal not mentioned); assay: not described here for DMi; conditions: read-out: KD(PLP)
measured.endpoint: pKd
Give only the number. pKd is defined as minus log10 of concentration in molar units.

Q) Requested field: pKd. Item: Cc1ncc(COP(=O)(O)O)c(C=O)c1O
A) 6.59

----------
target: AGT (DMa, major allele) (Homo sapiens, UniProt P21549, F238S/F240S/I340M/P11L/R118A); construct: full length, expressed in E. coli BL21(DE3), purified on HisPrep FF (His-tagged, removal not mentioned); test: not described in detail here for MMi; settings: read-out: KD(PLP)
measured.endpoint: pKd
Give only the number. pKd is defined as minus log10 of concentration in molar units.

Q) Requested field: pKd. Item: Cc1ncc(COP(=O)(O)O)c(C=O)c1O
A) 5.36

----------
Molecular target: DMa-FlAsH (row MMa-FlAsH) (Homo sapiens, UniProt P21549, INS254CCPGCC)
Construct: full length with CCPGCC FlAsH motif inserted in a surface loop, expressed in E. coli BL21(DE3), purified on HisPrep FF (His-tagged)
Sequence (P21549 with tags, fused parts or gaps INS254CCPGCC): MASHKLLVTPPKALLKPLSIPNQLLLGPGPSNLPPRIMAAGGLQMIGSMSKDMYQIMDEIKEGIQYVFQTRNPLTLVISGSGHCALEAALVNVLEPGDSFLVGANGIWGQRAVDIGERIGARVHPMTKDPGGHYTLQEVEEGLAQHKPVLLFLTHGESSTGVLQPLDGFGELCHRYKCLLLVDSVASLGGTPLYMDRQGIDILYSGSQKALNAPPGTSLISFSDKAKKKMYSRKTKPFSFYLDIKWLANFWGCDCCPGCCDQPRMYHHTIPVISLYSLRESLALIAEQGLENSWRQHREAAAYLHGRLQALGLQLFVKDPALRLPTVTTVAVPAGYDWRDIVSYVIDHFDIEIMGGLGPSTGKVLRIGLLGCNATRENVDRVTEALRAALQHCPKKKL
Experiment: intrinsic fluorescence quenching of apoenzyme, tight-binding quadratic fit
Conditions: 0.1 μM apoenzyme, 24 h incubation, PLP 0.01–10 μM
measured.endpoint: pKd
Give only the number. pKd is defined as minus log10 of concentration in molar units.

Q) Requested field: pKd. Item: Cc1ncc(COP(=O)(O)O)c(C=O)c1O
A) 6.60
